- Tested on: DNA topoisomerase 1 (Bos taurus)
- experiment: Ratio of DNA relaxation times by topoisomerase in presence of 2 uM of compound (t1/e(+drug) / t 1/e(-drug))
endpoint: Ratio
Answers are plain numbers.

Below, each entry is followed by its recorded Ratio result.
# compound, tested_system, numeric_value
data = [
    ("COc1cccc2c1C(=O)c1c(O)c3c(c(O)c1C2=O)C[C@@](O)(C(C)=O)C[C@@H]3OC1OC(C)C(CC2CC(O)C(CC3CCC(=O)C(C)O3)CO2)C(O)C1I (stereo partly drawn)", "DNA topoisomerase 1 (Bos taurus)", 1.4),
    ("COc1cccc2c1C(=O)c1c(O)c3c(c(O)c1C2=O)C[C@@](O)(C(C)=O)C[C@@H]3OC1CC(O)C(CC2CC(O)C(CC3CCC(=O)C(C)O3)CO2)C(C)O1 (stereo partly drawn)", "DNA topoisomerase 1 (Bos taurus)", 0.92),
]

In the following, a different compound is considered.
Ratio value, target or system DNA topoisomerase 1 (Bos taurus), for COc1cccc2c1C(=O)c1c(O)c3c(c(O)c1C2=O)C[C@@](O)(C(C)=O)C[C@@H]3OC1OC(c2ccccc2)C(O)C(O)C1I (stereo partly drawn) : 3.5

---

- Tested on: DNA topoisomerase 1 (Bos taurus)
- experiment: Ratio of DNA relaxation times by topoisomerase in presence of 2 uM of compound (t1/e(+drug) / t 1/e(-drug))
endpoint: Ratio

Below, each entry is followed by its recorded Ratio result.
# molecule, endpoint, result
measured = [
    ("COc1cccc2c1C(=O)c1c(O)c3c(c(O)c1C2=O)C[C@@](O)(C(C)=O)C[C@@H]3OC1OC(C)C(O)C(O)C1I (stereo in doubt; form 1)", "Ratio", 0.76),
    ("COc1cccc2c1C(=O)c1c(O)c3c(c(O)c1C2=O)C[C@@](O)(C(C)=O)C[C@@H]3OC1OC(C)C(O)C(O)C1I (stereo in doubt; form 2)", "Ratio", 1.5),
]

In the following, a different molecule is considered.
The measured Ratio associated with COc1cccc2c1C(=O)c1c(O)c3c(c(O)c1C2=O)C[C@@](O)(C(C)=O)C[C@@H]3OC1OC(C)C(O)C(O)C1I (stereo in doubt; 2) reads 2
